MEASURED TARGET: AKT2 (Homo sapiens, UniProt P31751)
Sequence (P31751 whole entry): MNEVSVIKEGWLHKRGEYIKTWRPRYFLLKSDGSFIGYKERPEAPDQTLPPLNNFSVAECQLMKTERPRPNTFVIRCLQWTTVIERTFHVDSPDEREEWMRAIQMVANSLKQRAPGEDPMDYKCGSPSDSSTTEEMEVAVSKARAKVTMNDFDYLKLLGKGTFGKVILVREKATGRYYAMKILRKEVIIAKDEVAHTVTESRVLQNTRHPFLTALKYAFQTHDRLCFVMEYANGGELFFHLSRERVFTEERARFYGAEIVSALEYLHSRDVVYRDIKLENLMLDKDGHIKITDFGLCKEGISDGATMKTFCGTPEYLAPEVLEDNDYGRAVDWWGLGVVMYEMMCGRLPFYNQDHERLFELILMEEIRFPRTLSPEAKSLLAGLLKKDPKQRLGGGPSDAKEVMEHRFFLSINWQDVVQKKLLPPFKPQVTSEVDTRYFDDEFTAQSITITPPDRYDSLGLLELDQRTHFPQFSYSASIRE
PROCEDURE TEXT: AKT Kinase Assay (IMAP fluorescent polarisation) vs AKT2
RECORDED CONDITIONS: activated AKT2, FAM Crosstide substrate
Method: Testing of the compounds was performed using an AKT Kinase Assay: Activated AKT isoforms 1, 2 and 3 were assayed utilising a 5′ FAM Crosstide (Seq. GRPRTSSFAEG-OH). The extent of kinase phosphorylation was determined by fluorescent polarisation using IMAP progressive binding reagent, which introduces binding beads which allow the reagent to specifically bind to phosphate residues via covalent co-ordination complex bonds. […]
pIC50: −log10 of the molar value. Counter-ions that a name gives are not always drawn.
READOUT LABEL: pIC50

Reported pIC50 (AKT2 (Homo sapiens, UniProt P31751)) for entry CCNc1nc2oc(-c3ccc(C4(N)CCC4)cc3)c(-c3ccccc3)c2c(=O)n1C [Example 88, HCl] is ≥ 7.00

Reported pIC50 (AKT2 (Homo sapiens, UniProt P31751)) for entry CNc1nc(NCCO)nc2oc(-c3ccc(C4(N)CCC4)cc3)c(-c3ccccc3)c12 [Example 79, HCl] is 5.00 to 6.00

Reported pIC50 (AKT2 (Homo sapiens, UniProt P31751)) for entry `COc1nc(NCCN2CCN(C)CC2)nc2oc(-c3ccc(C4(N)CCC4)cc3)c(-c3ccccc3)c12` is 6.00 to 7.00

Reported pIC50 (AKT2 (Homo sapiens, UniProt P31751)) for entry `NC(=O)c1cccc2c(-c3ccccc3)c(-c3ccc(C4(N)CCC4)cc3)oc12` is 5.00 to 6.00

Reported pIC50 (AKT2 (Homo sapiens, UniProt P31751)) for entry `NC1(c2ccc(-c3oc4ncncc4c3-c3ccccc3)cc2)CCC1` is 5.00 to 6.00

Reported pIC50 (AKT2 (Homo sapiens, UniProt P31751)) for entry `Cn1cc(-c2cn(CCF)c(=O)c3c(-c4ccccc4)c(-c4ccc(C5(N)CCC5)cc4)oc23)cn1` is 6.00 to 7.00

Reported pIC50 (AKT2 (Homo sapiens, UniProt P31751)) for entry `COc1nc(N2CCC(O)CC2)nc2oc(-c3ccc(C4(N)CCC4)cc3)c(-c3ccccc3)c12` is 6.00 to 7.00

Reported pIC50 (AKT2 (Homo sapiens, UniProt P31751)) for entry `COc1nc(N2CCN(CCN(C)C)CC2)nc2oc(-c3ccc(C4(N)CCC4)cc3)c(-c3ccccc3)c12` is 6.00 to 7.00

Reported pIC50 (AKT2 (Homo sapiens, UniProt P31751)) for entry `NC1(c2ccc(-c3oc4nccnc4c3-c3ccccc3)cc2)CCC1` is 5.00 to 6.00

Reported pIC50 (AKT2 (Homo sapiens, UniProt P31751)) for entry `NC1(c2ccc(-c3oc4c(=O)[nH]ccc4c3-c3ccccc3)cc2)CCC1` is 5.00 to 6.00

Reported pIC50 (AKT2 (Homo sapiens, UniProt P31751)) for entry `NC1(c2ccc(-c3oc4ncc(C5CC5)nc4c3-c3ccccc3)cc2)CCC1` is 6.00 to 7.00

Reported pIC50 (AKT2 (Homo sapiens, UniProt P31751)) for entry NC1(c2ccc(-c3oc4ncn(CCF)c(=O)c4c3-c3ccccc3)cc2)CCC1 [Example 103, HCl] is ≥ 7.00

Reported pIC50 (AKT2 (Homo sapiens, UniProt P31751)) for entry `CNC(=O)c1cn(C)c(=O)c2c(-c3ccccc3)c(-c3ccc(C4(N)CCC4)cc3)oc12` is 6.00 to 7.00

Reported pIC50 (AKT2 (Homo sapiens, UniProt P31751)) for entry `NC1(c2ccc(-c3oc4c(Br)cn(CCF)c(=O)c4c3-c3ccccc3)cc2)CCC1` is ≥ 7.00

Reported pIC50 (AKT2 (Homo sapiens, UniProt P31751)) for entry `CSc1nc2oc(-c3ccc(C4(N)CCC4)cc3)c(-c3ccccc3)c2c(=O)[nH]1` is 6.00 to 7.00

Reported pIC50 (AKT2 (Homo sapiens, UniProt P31751)) for entry NC1(c2ccc(-c3oc4ncn(CC5CC5)c(=O)c4c3-c3ccccc3)cc2)CCC1 [Example 100, HCl] is ≥ 7.00

Reported pIC50 (AKT2 (Homo sapiens, UniProt P31751)) for entry `NC1(c2ccc(-c3oc4cnccc4c3-c3ccccc3)cc2)CCC1` is 5.00 to 6.00

* * *

MEASURED TARGET: UniProtKB P31751
PROCEDURE TEXT: AKT Kinase Assay (IMAP fluorescent polarisation) vs AKT2
RECORDED CONDITIONS: activated AKT2, FAM Crosstide substrate
Where a name gives a salt, the structure may show the parent alone.
READOUT LABEL: IC50

// sample `COc1nc(-n2ccnc2)nc2oc(-c3ccc(C4(N)CCC4)cc3)c(-c3ccccc3)c12` , its IC50 was 100 to 1000 nM

// sample `NC1(c2ccc(-c3oc4ccn(CCF)c(=O)c4c3-c3ccccc3)cc2)CCC1` , its IC50 was 1000 to 10000 nM

// sample `CNc1nc2oc(-c3ccc(C4(N)CCC4)cc3)c(-c3ccccc3)c2c(=O)n1CC(F)(F)F` , its IC50 was ≤ 100 nM

// sample `COCCNc1nc(OC)c2c(-c3ccccc3)c(-c3ccc(C4(N)CCC4)cc3)oc2n1` , its IC50 was 100 to 1000 nM

// sample `Cn1c(=O)c2c(-c3ccccc3)c(-c3ccc(C4(N)CCC4)cc3)oc2n(C)c1=O` , its IC50 was 1000 to 10000 nM

// sample CNc1nc(OCCF)c2c(-c3ccccc3)c(-c3ccc(C4(N)CCC4)cc3)oc2n1 [Example 89, HCl] , its IC50 was 100 to 1000 nM

// sample NC1(c2ccc(-c3oc4ncn(CCO)c(=O)c4c3-c3ccccc3)cc2)CCC1 [Example 102, HCl] , its IC50 was 100 to 1000 nM

// sample `NC1(c2ccc(-c3oc4ncc(-c5ccn[nH]5)nc4c3-c3ccccc3)cc2)CCC1` , its IC50 was 1000 to 10000 nM

// sample `Cn1c(N2CCNC(=O)C2)nc2oc(-c3ccc(C4(N)CCC4)cc3)c(-c3ccccc3)c2c1=O` , its IC50 was ≤ 100 nM

* * *

MEASURED TARGET: AKT2 (Homo sapiens, UniProt P31751)
PROCEDURE TEXT: AKT Kinase Assay (IMAP fluorescent polarisation) vs AKT2
RECORDED CONDITIONS: activated AKT2, FAM Crosstide substrate
pIC50: −log10 of the molar value. Structures can show the parent of a compound that is named as a salt.
READOUT LABEL: pIC50

See these solved cases before continuing.
Cn1cc(-c2ccn[nH]2)c2oc(-c3ccc(C4(N)CCC4)cc3)c(-c3ccccc3)c2c1=O [Example 116]; 6.00 to 7.00
CCn1c(NCCO)nc2oc(-c3ccc(C4(N)CCC4)cc3)c(-c3ccccc3)c2c1=O [Example 93]; ≥ 7.00
COc1nc(N)nc2oc(-c3ccc(C4(N)CCC4)cc3)c(-c3ccccc3)c12 [Example 31]; 6.00 to 7.00
COc1nc(N2CCC(N)CC2)nc2oc(-c3ccc(C4(N)CCC4)cc3)c(-c3ccccc3)c12 [Example 39]; 6.00 to 7.00
NC1(c2ccc(-c3oc4ncc(NCCO)nc4c3-c3ccccc3)cc2)CCC1 [Example 148]; 5.00 to 6.00
Cn1cc(-c2cncnc2)c2oc(-c3ccc(C4(N)CCC4)cc3)c(-c3ccccc3)c2c1=O [Example 115]; 5.00 to 6.00
Cc1n[nH]c(C)c1-c1cnc2oc(-c3ccc(C4(N)CCC4)cc3)c(-c3ccccc3)c2n1 [Example 143]; 5.00 to 6.00
COc1nc(OC)c2c(-c3ccccc3)c(-c3ccc(C4(N)CCC4)cc3)oc2n1 [Example 49]; 6.00 to 7.00

// sample NC1(c2ccc(-c3oc4nc(N5CCNCC5)ncc4c3-c3ccccc3)cc2)CCC1 [Example 53] , its pIC50 was 6.00 to 7.00

// sample COCCNc1nc2oc(-c3ccc(C4(N)CCC4)cc3)c(-c3ccccc3)c2c(=O)n1C [Example 83] , its pIC50 was 5.00 to 6.00

// sample N#CCn1cnc2oc(-c3ccc(C4(N)CCC4)cc3)c(-c3ccccc3)c2c1=O [Example 101] , its pIC50 was 6.00 to 7.00

// sample Cn1c(NCC(N)=O)nc2oc(-c3ccc(C4(N)CCC4)cc3)c(-c3ccccc3)c2c1=O [Example 63] , its pIC50 was 6.00 to 7.00

// sample NC1(c2ccc(-c3oc4nc(NCCO)nc(C(F)(F)F)c4c3-c3ccccc3)cc2)CCC1 [Example 73] , its pIC50 was 6.00 to 7.00

// sample CNc1nc(OC)c2c(-c3ccccc3)c(-c3ccc(C4(N)CCC4)cc3)oc2n1 [Example 32] , its pIC50 was 6.00 to 7.00

// sample COc1nc(N2CCCCC2)nc2oc(-c3ccc(C4(N)CCC4)cc3)c(-c3ccccc3)c12 [Example 47] , its pIC50 was 5.00 to 6.00

// sample COCCn1cnc2oc(-c3ccc(C4(N)CCC4)cc3)c(-c3ccccc3)c2c1=O [Example 105, HCl] , its pIC50 was 6.00 to 7.00

Source listed as patent US20120309739A1.
